# System: PC3 prostate cancer cell line
# test.protocol: qHTS cell viability screen (Cell Titer Glo), PC3
# Assay type: cell-based
# measurement.context: 72 h, PC3 prostate, 72 hours, cell viability Cell Titer Glo; read-out: CC50 PC3
Overview of recorded log10 CC50 for various compounds
All values: base-10 log of CC50 in µM.

COc1cc(/C=C2/C(C)=C(CNC(=O)[C@@H](N)CO)c3cc(F)ccc32)cc(OC)c1OC ... 1.42
CCS(=O)(=O)NCC1=C(C)/C(=C/c2cc(OC)c(OC)c(OC)c2)c2ccc(F)cc21 ... 1.18
CSc1ccc(/C=C2/C(C)=C(CCNCCN(C)C)c3cc(F)ccc32)cc1 ... 0.64
CC1=C(CCNCc2ccccc2)c2cc(F)ccc2/C1=C\c1ccc([S+](C)[O-])cc1 (centres unmarked) ... 1.62
CSc1ccc(/C=C2/C(C)=C(CN)c3cc(F)ccc32)cc1 ... 1.53

Now look at this one.
Summary for this compound, CSc1ccc(/C=C2/C(C)=C(CC(=O)NCCN(C)C)c3cc(F)ccc32)cc1 [SSA, Sulindac sulfide amide, reference compound] : log10 CC50 is 0.49
